- Test system: ATXN3/Q75-GFP SH-SY5Y cells
- protocol: Neurite outgrowth analysis, ATXN3/Q75-GFP SH-SY5Y cells
- Type: cell-based, human
- condition label: 10 μM compound, ATXN3/Q75-GFP-expressing cells; untreated 23.6 μm
- Method: ATXN3/Q75-GFP SH-SY5Y cells were plated on 24-well (1 × 10^4/well) dishes, and retinoic acid (10 μM; Sigma-Aldrich) was added to initiate neuronal differentiation. […] Aggregation was determined by Transfluor technology based on GFP fluorescence intensity. Neurite length, process and branch of ATXN3/Q75-GFP-expressing cells were analyzed by using Metamorph microscopy automation and image analysis software (neurite outgrowth application module, Molecular Devices). […]
experimental readout: neurite length

> print(dat)
                                   compound         value
1  CCCCC/C=C\C/C=C\C/C=C\C/C=C\CCCC(=O)Nc1ccc(O)cc1 [AM404, reference compound]       30.8 μm
2  O=C(c1ccccc1)c1cc2c(O)cccc2oc1=O [LM-031, 3-benzoyl-5-hydroxychromen-2-one]  26.9–27.2 μm
3  O=[N+]([O-])c1cccc2nc(/C=C/c3cc4ccccc4nc3N3CCOCC3)ccc12  26.9–27.2 μm

# next compound below
Requested field: neurite length. Item: CC(=O)/C(=C/c1ccccc1[N+](=O)[O-])Cc1c[nH]c2ccccc12
26.9–27.2 μm
